Biological target: T1, cynomolgus TNFR2 (Sino 90102-C08H) (cynomolgus, UniProt A0A2K5VET2 132-366)
T1 construct: also called CynoTNFR2 (His tag)
T1 sequence: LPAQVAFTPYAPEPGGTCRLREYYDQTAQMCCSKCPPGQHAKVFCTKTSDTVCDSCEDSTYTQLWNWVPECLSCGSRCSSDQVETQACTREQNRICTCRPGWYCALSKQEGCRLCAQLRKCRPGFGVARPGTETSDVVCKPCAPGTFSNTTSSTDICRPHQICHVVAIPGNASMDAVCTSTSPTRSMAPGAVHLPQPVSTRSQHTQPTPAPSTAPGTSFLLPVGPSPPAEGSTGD
Test: SPR Biacore, antibody on Protein A chip, TNFR2 analyte
Metric name: log10(koff) (log10 of the value in s⁻¹)
Friendly reminder: values = log10 of koff, unit s⁻¹.

# annotated cases, reported log10(koff) shown
[
  {
    "Binder": "TNFR2 antibody #001 (antibody, V domains shown, also called antibody #1) VH: EVQLQESGGGLVQPGGSLNLSCAASGFAFSTYDLSWVRQTPEKRLEWVAYINNGGISTYYSDTVKGRFTISRDNAKNTLYLQMSSLKSEDTAMYYCVRGPFYGSANYFDYWGQGTTVTVSS VL: EIVMTQSPASLSLSVGETVTITCRTSESIYSNLPWYQQKQGKSPQLLVYDATKLAEGVPSRFSGSESGTQYSLKINSLQSEDFGTYYCQHFWVTPWTFGGGTKLEIK",
    "log10(koff)": -3.73
  },
  {
    "Binder": "TNFR2 antibody #125 (antibody, V domains shown) VH: EVQLQESGGGLVQPGGSLNLSCAASGFAFSIYDLSWVRQTPEKRLEWVAYINNGGISTYYSDTVKGRFTISRDNAKNTLYLQMSSLKSEDTAMYYCVRGPFYGSANYFDYWGQGTTVTVSS VL: DIQMTQSPASLSLSVGETVTITCRASENIYSNLAWYQQKQGKSPQLLVYDATKLAEGVPSRFSGSESGTQYSLKINSLQSEDFGTYYCQHFWVTPWTFGGGTKLEIK",
    "log10(koff)": -3.81
  },
  {
    "Binder": "TNFR2 antibody #309 (antibody, V domains shown) VH: EVQLQESGAELVKPGASVKLSCKASGYTFTSYWIHWVKLRPGQGFEWIGEINPNNGGTDYNEKFKRKATLTVDKSSSTAYMELSSLTSEDSAIYYCTIDSMITTTWFAYWGQGTTVTVSS VL: EIVMTQSQKLMSTVVGDRVSVTCKASQNVGTNVAWFQQKPGQSPKALINSASYRYSGVPDRFTGSGSGTDFTLTISSVQSEDLAEYFCQQYNSYPFTFGSGTKLEIK",
    "log10(koff)": -2.67
  }
]

Request: Indicate its recorded log10(koff); the binder in question is TNFR2 antibody #226 (antibody, V domains shown) VH: EVQLQESGAELVRPGASVKLSCKASGYSFTNYWMNWVKQRPGQGLEWIGMIHPSDSETRLNQKFKDKATLTVDKSSSTAYMQLSSPTSEDSAVYYCARGEGLGAARSVSMDYWGQGTTVTVSS VL: DIQMTQSPSSLSASLGDRVTISCRASQDISNYLNWYQQKPDGTVKVLIYYTALLHSGVPSRFSGSGSGTDYSLTISNLEQEDIATYFCQQGNTLPWTFGGGTKLEIK
Result: -3.50

Request: Indicate its recorded log10(koff); the binder in question is TNFR2 antibody #224 (antibody, V domains shown) VH: EVQLQESGPEIVKPGASVKLSCTASGFNNKDIYMHWVKQRPEQGLEWIGRIDPATGNTKHDPKFQDKATLSSDTSSNTAYLQFSSLTSEDTAVYYCAHSPYGDFGAMDYWGQGTTVTVSS VL: DIQMTQSPAIMSASLGERVTMTCTASSSVSSNYLHWYQQKPGSSPKLWIYSTSNLPSGVPARFSGSGSGTSYSLTISSMEAEDAATYYCHQYHRSPWTFGGGTKLEIK
Result: -3.94

Request: Indicate its recorded log10(koff); the binder in question is TNFR2 antibody #352 (antibody, V domains shown) VH: EVQLQESGPGLVAPSQSLSITCTVSGFSLTSYGVHWVRQPPGKGLEWLVVIWSDGGTTYNSALKSRLSISKDNSKSQVFLKMNSLQTDDTAMYYCARHDDDGYYAMDYWGQGTTVTVSS VL: DIVLTQSPSLMSASPGEKVTMTCSASSSVGYMYWYQQKPRSSPKPWIYLTSNLASGVPARFSGSGSGTSYSLTISSMEVEDAATYYCQQWSSDPFTFGSGTKLEIK
Result: -2.61

Request: Indicate its recorded log10(koff); the binder in question is TNFR2 antibody #133 (antibody, V domains shown) VH: EVQLQESGAELVRSGASVKLSCTASGFNIKDYYIQWVKQRPEQGLEWIGWIDPESGNTKYAPKFQDKATMTADTSSNTAYLQLSGLTSEDSAVYYCNAYYDYDGSMDYWGQGTTVTVSS VL: DIVMTQSPLSLPVSLGDQASISCRSSQSLVHSNGNTYLHWYLQKPGQSPKLLIYKVSNRFSGVPDRFSGSGSGTDFTLKISRVETDDLGVYFCSQSTHVPTWTFGGGTKLEIK
Result: -1.99

Request: Indicate its recorded log10(koff); the binder in question is TNFR2 antibody #395 (antibody, V domains shown) VH: EVQLQESGPVLVQPSQSLSITCTVSGFSLTSYSVHWVRQSPGKGLEWLGVIWSDGGTDYSAAFISRLSISKDNSKSQVFFKMNSLQADDTAIYYCARNDDGGDYAMDYWGQGTTVTVSS VL: EIVLTQSPALMSASPGEKVTMTCSASSSVSYMYWYQQKPRSSPKPWIYLTSNLASGVPARFSGSGSGTSYSLTISSMEAEDAATYYCQQWSSNPLTFGAGTKLEIK
Result: -3.56

Request: Indicate its recorded log10(koff); the binder in question is TNFR2 antibody #219 (antibody, V domains shown) VH: EVQLQESGAELVRPGASVKLSCKASGYSFTNYWMNWVKQRPGQGLEWIGMIHPSDTETRLNQNFKDKATLTVDKSSSTSYMQLSSPTSEDSAVYYCARGEGLGAARSVSMDYWGQGTTVTVSS VL: DILMTQSPSSLSASLGDRVTISCRASQDISNYLNWYQQKPDGTVKVLIYYTAILHSGVPSRFSGSGSGTDYSLTISNLEQEDIATYFCQQGNTLPWTFGGGTKLEIK
Result: -3.32

Request: Indicate its recorded log10(koff); the binder in question is TNFR2 antibody #088 (antibody, V domains shown) VH: EVQLQESGGGLVQPGGSLNLSCAASGFAFSTYDLSWVRQTPGKRLEWVAYINNGGISTYYSDTVKGRFTITRDNAKNTLYLQMSSLKSEDTAMYYCVRGPFYGSANYFDYWGQGTTVTVSS VL: DILMTQSPASLSLFVGETVTITCRASENIYSNLAWYQQKQGKSPQLLVYDATKLAEGVPSRFSGSESGTQYSLKINSLQSEDFGTYYCQHFWVTPWTFGGGTKLEIK
Result: -3.76

Request: Indicate its recorded log10(koff); the binder in question is TNFR2 antibody #365 (antibody, V domains shown) VH: EVQLQESGPGLVQPSQSLSITCTVSGFSLTSYGVHWVRQSPGKGLEWLGLIWSDGSPDYSAAFISRLSINKDNSKSQVFFKMNSLQADDTAIYYCARNDDGGDYVMDYWGQGTTVTVSS VL: EIVLTQSPALMSASPGEKVTMTCSASSSVSYMYWYQQKPRSSPKPWIYLTSNLASGVPARFSGSGSGTSYSLTISSMEAEDAATYYCQQWTSNPLTFGAGTKLEIK
Result: -2.51
